Data origin, for the record: the nanobody polyreactivity screen of Harvey et al. (2022)

- protocol summary: yeast display, Sf9 membrane polyspecificity reagent, FACS + sequencing; frameworks hold sequencing errors
assay readout: polyreactivity (PSR sort gate)

Input line: Consider the sequence QVQLVESGGGLVQAGGSLRLSCAASGRIFPYYAMGWYRQAPGKEWELVAAISSSSGSTYYADTVKGRFTISRDNAKNTVYLQMNSLKPEDTAVYYCAARKSWRYNIWSRNAYEDWGQGTQVTVSS and give its measured polyreactivity (PSR sort gate).
Output line: high polyreactivity

Input line: Which polyreactivity (PSR sort gate) reading was recorded for the sequence QVQLVESGGGLVQAGGILRLSCAASGRIFHRYTMGWYRQAPGKEREFVAAITTRAGSTYYADSVKGRFTISRDNAKYTVYLQMNSLKPEDTAVYYCNIRRHSLFGGTTTRYDYWGQGTQVTVSS ?
Output line: high polyreactivity

Input line: Which polyreactivity (PSR sort gate) value belongs to QVQLVESGGGLVQAGGSLRLSCAASVSIFQVYAMGWYRQAPGKERELVAAITWSAGSTYADSVKGRFTISRDNAKNTVYLQMNSLKPEDTAVYYSAAYPYVGYVSFSAYDYWGQGTQVTVSS ?
Output line: low polyreactivity

Input line: For the sequence shown here, QVQLVESGGGLVQAGGSLRLSCAASGSTCWFYAMGWYRQAPGKEREVVATITSGGNTTYADSVKGRFTISRDNAKNTVYLQMNSLKPEDTAVYYCAAGWQAPWGYYYHFEYDYWGQGTQVTVSS , give the reported polyreactivity (PSR sort gate).
Output line: low polyreactivity

Now examine the next entry.
Input line: Can you look up the measured polyreactivity (PSR sort gate) of QVQLVESGGGLVQAGGSLRLSCAASGFTFPVYAMGWYRPAPGIEREFVAASTKSGGGTYYADSVKGRCTLSRDNAKKTVYGQMNSLKPEETAVYYCAKASRRFLTLGSDYWGQGTQVTVSS for me?
Output line: high polyreactivity

====

- protocol summary: yeast display, Sf9 membrane polyspecificity reagent, FACS + sequencing; frameworks hold sequencing errors
assay readout: polyreactivity (PSR sort gate)

Guide cases for polyreactivity (PSR sort gate), answers given:
Input line: Entry QVQLVESGGGLVQAGGSLRVCCAASGRIFGNYAMGWYRQAPGKDRELVAAISGGGSTYYADSVKGRFTISRDNAKNTVYVQMNSLKPEDTAVYYCAAKPTYRGYGYGSWGQGTQVTVSS : reported polyreactivity (PSR sort gate) = ?
Output line: low polyreactivity

Input line: Reported polyreactivity (PSR sort gate), sequence QVQLVESGGGLVQAGGSLRLSCAASGRIFQGYAMGWYRQAPGKERELVAAISVRGGSTFYADSVKGRFTISRDNAKNTVYLQMNSLKPEDTAVYYCATRTRYRGGYWGQGTQVTVSS : ____
Output line: high polyreactivity

Input line: polyreactivity (PSR sort gate) for QVQLVESGGGLVQAGGRLRLSCAASGSIFPQYAMGWYRQAPGKERELVAAITWSGSRTRYADSVKGRFTISRDNAKNTVYLQMNSLKPEDTAVYYCAARVNGQTYYYWGQGTQVTVSS ?
Output line: high polyreactivity

Input line: Query: polyreactivity (PSR sort gate); subject: QVQLVESGGRLVQAGGSLRLSCAASGSIFRSYAMAWYRPAPGKERELVAGISYSGGSTYYADSVKGRFTISRDNAKNTVYLQMNSLKPEDTAVYYCNVDGGTYFFFVGAWGEYDYWGQGTQVTVSS
Output line: low polyreactivity

Now look at this one.
Input line: So what's the measured polyreactivity (PSR sort gate) for this one? QVHLVESGGGLVQAGGSLRLSCAASGSTFLLNAMGWYRQATGKERELVAGITGSGGRTYYADSVKGRFTISRDNAKNTVYLQMNSLKPEDTAVYYCAAYRNLYWYQHEYWGQGTLVTVSS
Output line: low polyreactivity

====

- protocol summary: yeast display, Sf9 membrane polyspecificity reagent, FACS + sequencing; frameworks hold sequencing errors
assay readout: polyreactivity (PSR sort gate)

# count of solved cases: 6
Input line: # get_value(readout='polyreactivity (PSR sort gate)', item= QVQLVESGGGLVQAGGSLRLSCAASGRIFPYYAMGWYRQAPGKERELVAAISQSGGSTNYADSVKGRFTISRDNAKNTVYLQLNSLKPEDTAVYYCNVDVSRSWAQPYTYDYWGQGTQVTVSS )
Output line: low polyreactivity

Input line: // lookup polyreactivity (PSR sort gate) for QVQLVESGGGLVQAGGSLRLSCAASGRIFAPYAMGWYRQAPGKERELVAGISIGGSTYYADSVKGRFTISRDNAKNTVYLQMNSLKPEDTAVYYCAALYNFWYSTYYYWGQGTQVTVSS
Output line: high polyreactivity

Input line: Using the record for QVQLVESGGGLVQAGGSLRLSCAASVYGMGWYRQAPGKERELVAAISNGGTTYYADSEKGRFTISRDNAKNTVYLQMNSLKPEDTAVYYCADRSWPGGFIYYYWGQGTQVTVSS , report its polyreactivity (PSR sort gate).
Output line: low polyreactivity

Input line: Request the reported polyreactivity (PSR sort gate) associated with QVQLVESGGGLVQAGGSLLLSCAASGYTFGFYAMGWYTQAPGKERELVAAISASGGSTYYADSVKGRFTISRDNAKNTVYLQMNSVKPEETAVYYCAAVYSVYYHTWVTTRDYYYWGQGTQVTVSS
Output line: high polyreactivity

Input line: // polyreactivity (PSR sort gate) lookup, key: QVQLVESGGGLVQAGGSLRLSCAASGSILDPNAMGWYRQAPGKERELVASISRGDNTYYADSVKGRFRISRDNAKNTVYLQMNSLKPEDTAVYYCAADYSWVVWHDYWGQGTQVTVSS
Output line: low polyreactivity

Input line: For QVQLVESRGGLVQAGGSLRLSCSASGITFNHYAMGWYRQAPGKERQLVAAITGSGGSTYYADSVKGRFTISRDNGKNTVYLQMNSLKPEDTAVYYCKTSPKLTYAVLYDYWGQGTQVTVSS , what is its reported polyreactivity (PSR sort gate)?
Output line: high polyreactivity

***
Input line: Entry QVQLVESGGGLVQAGGSLRLSCAASGSIFHYNTMGWYRQAPGKERELVAAITYSGGSTYYADSVKGRYTISRDNAKNPVYLQMNSLKPEDTAVYYCAVRGPGTSTYWYHEYEYWGQGTQVTVSS has what polyreactivity (PSR sort gate)?
Output line: high polyreactivity

Input line: Record request: polyreactivity (PSR sort gate) value, item QVQLVESGGGLVQAGGSLRLTCAASGFTIGYYAMGWYRQAPGKERELVAAISWSGGRTYYADSVKGRFTISRDNAKNTVYLQMNSLKPEDTAVYDCAADGQQTYSGYDYWGQGTQVTVSS
Output line: high polyreactivity

Input line: Looking for the measured polyreactivity (PSR sort gate) of QVQLVESGGGLVQAGGSLRLSCAASGRILQYNVMGWYRQAPGKERELVATISSGGTTNYADSVKGRFTISRDNAKNTVYLQMNSLKPEDTAVYYCAAGLPRKRVQYDYWGQGTQVTVSS , can you help?
Output line: low polyreactivity

====

- protocol summary: yeast display, Sf9 membrane polyspecificity reagent, FACS + sequencing; frameworks hold sequencing errors
assay readout: polyreactivity (PSR sort gate)

Input line: Entry QVQLVESGGGLVQAGGSLRLSCAASGYTFKSYVMGWYRQAPGKERELVAAITSIGGSTYYADSVKGRFTISRDNAKNTVYLQMNRLKPEDTAVYYCAARSFRFYPRMHDWGQGTQVTVSS has what polyreactivity (PSR sort gate)?
Output line: high polyreactivity

Input line: For QVQLVESGAGLVQAGGRLRLSCAASGRIFDGYAMGWYRQAPGKERELVAAITASGGSTYYADSVKGRFTISRDNAKITVYLQMNSLKPEDTAVYYCAVDYSYWVEYWGQGTQVTVSS , what is its reported polyreactivity (PSR sort gate)?
Output line: high polyreactivity

====

- protocol summary: yeast display, Sf9 membrane polyspecificity reagent, FACS + sequencing; frameworks hold sequencing errors
assay readout: polyreactivity (PSR sort gate)

Sample records with polyreactivity (PSR sort gate):
Input line: For QVQLEESGGGLVQAGGSLRLSCAASGFIFGLNAMGWYRQAPGKERELVAGIRSGSSTNYADSVKGRFTISRDNAKNTVYLQMNSLKPEDTAVYYCATEGYWVYGFDDEYWGQGTQVTVSS , what is its reported polyreactivity (PSR sort gate)?
Output line: low polyreactivity

Input line: Form field: reported polyreactivity (PSR sort gate) of QVQLVESGGGLVQAGGRLRLSCAAYGSIFMYYAMGWYRQSPVKERELVAAITRGGSTYYADSVKGRFTISRDNAKNTVYLQMNSLKPEDTAVYYCAATTFRSVGYDYWGQGTQVTVSS
Output line: low polyreactivity

Input line: Which polyreactivity (PSR sort gate) value is on record for QVQLVETGGGLVQAGGSLRLSCAPSGRTLSYYAMGWYIQAPGKERELVAAIRHSAGSTYYADSVKVRFTISRDNAKNTVYLQMISLKPEDTAVYYCAKKYYGHRYPSIYDYWGQGTQVTVSS ?
Output line: high polyreactivity

Input line: Recorded polyreactivity (PSR sort gate) for QVQLVESVGGLVQAGGSLRLSCAASGRTFGRYAMGWYRKAPGKERELVAAINRGGSTKYADSVKGRFTISRDNAKNTVYFQMNSLKPEDTAVDYCAKDRHPALHYDYWGQGTQVTVSS , please?
Output line: low polyreactivity

Input line: For the sequence shown here, QVQLVESGGGLVQAGGSLSLSCAASGSIFRYYAMGWYRQAPGKERELVAAITSGGRTNYADSVKGRFTISRDNAKNTVYLQMNSLKREDTAVYYCNKCYNAVWRYRGDYWGQGTQVTVSS , give the reported polyreactivity (PSR sort gate).
Output line: high polyreactivity

Please examine the following record next.
Input line: Please look up its polyreactivity (PSR sort gate): QVQHVESGGGLVQAGGSLRLSCAASGSIFGRYAMGWYRQAPGKERELVAAIRTDGSTYYADSVKGRFTISRDNAKNTVYLQMNSLKPEDTAVYYCAAVSKFQFHYIQYADRQYGYWGQGTQVTVSS
Output line: low polyreactivity
